System: corn
Assay: post-emergence stage experiment, crop (Table 1)
Assay type: in vivo
Settings: post-emergence spray at 4-5 leaf stage, 250 g/ha active ingredient with 450 kg/ha water, rated after 3 weeks in greenhouse
assay.endpoint: effect on crop, Corn (level)
Please give the numeric answer without any surrounding text.

> print(dat)
                                smiles.text  measured
1  CCc1nn(C)c(O)c1C(=O)c1ccc(C(F)(F)F)c(-n2cc(C)cn2)c1Cl         0

Task: Would you kindly share the measured effect on crop, Corn (level) for CCc1nn(CC)c(O)c1C(=O)c1ccc(C(F)(F)F)c(-n2cccn2)c1Cl ?
Output: 0

====

Measured effect on crop, Rice (level), listed per entry.
Tested on: rice
Assay: post-emergence stage experiment, crop (Table 1)
Type: in vivo
Design: key: Level 10: completely dead; Level 9: above 95% growth control rate; Level 8: above 90% growth control rate; Level 7: above 80% growth control rate; Level 6: above 70% growth control rate; Level 5: above 60% growth control rate; Level 4: above 50% growth control rate; Level 3: above 20% growth control rate; Level 2: 5%-20% growth control rate; Level 1: below 5% growth control rate
Settings: post-emergence spray at 4-5 leaf stage, 250 g/ha active ingredient with 450 kg/ha water, rated after 3 weeks in greenhouse

Task: Would you kindly share the measured effect on crop, Rice (level) for CCc1nn(C)c(OC(=O)c2cn(C)nc2C)c1C(=O)c1ccc(C(F)(F)F)c(-n2cccn2)c1Cl ?
Output: 10

Task: Would you kindly share the measured effect on crop, Rice (level) for CCc1nn(C)c(O)c1C(=O)c1ccc(C(F)(F)F)c(N2CCCCC2=O)c1Cl ?
Output: 10

Task: Would you kindly share the measured effect on crop, Rice (level) for CCc1nn(C)c(O)c1C(=O)c1ccc(C(F)(F)F)c(N2CCCC2=O)c1Cl ?
Output: 10

Task: Would you kindly share the measured effect on crop, Rice (level) for CCn1nc(C2CC2)c(C(=O)c2ccc(C(F)(F)F)c(N3CCCCCC3=O)c2Cl)c1OC(=O)c1cn(C)nc1C ?
Output: 10

Task: Would you kindly share the measured effect on crop, Rice (level) for CCOc1c(C(=O)Oc2c(C(=O)c3ccc(C(F)(F)F)c(-n4cc(C)cn4)c3Cl)c(C)nn2C)cnn1C ?
Output: 2 (Level 2: 5%-20% growth control rate)

Task: Would you kindly share the measured effect on crop, Rice (level) for CCn1nc(C2CC2)c(C(=O)c2ccc(C(F)(F)F)c(N3CCCC3=O)c2Cl)c1O ?
Output: 10

Task: Would you kindly share the measured effect on crop, Rice (level) for CCn1nc(C)c(C(=O)c2ccc(C(F)(F)F)c(N3CCCC3=O)c2Cl)c1OC(=O)c1cn(C)nc1C ?
Output: 10

Task: Would you kindly share the measured effect on crop, Rice (level) for Cc1cnn(-c2c(C(F)(F)F)ccc(C(=O)c3cnn(C)c3OC(=O)c3cnn(C)c3)c2Cl)c1 ?
Output: 2 (Level 2: 5%-20% growth control rate)

Task: Would you kindly share the measured effect on crop, Rice (level) for Cc1cnn(-c2c(C(F)(F)F)ccc(C(=O)c3c(C4CC4)nn(C)c3OC(=O)c3cn(C)nc3C)c2Cl)c1 ?
Output: 2 (Level 2: 5%-20% growth control rate)

====

System: corn
Test: post-emergence stage experiment, crop (Table 1)
Format: in vivo
Conditions: post-emergence spray at 4-5 leaf stage, 250 g/ha active ingredient with 450 kg/ha water, rated after 3 weeks in greenhouse
assay.endpoint: effect on crop, Corn (level)

Recorded results for 7 compounds are shown here.
> print(dat)
                                smiles.text                                 measured
1  CCc1nn(C)c(OC(=O)c2cn(C)nc2C)c1C(=O)c1ccc(C(F)(F)F)c(N2CCCC2=O)c1Cl  2 (Level 2: 5%-20% growth control rate)
2  CCOc1c(C(=O)Oc2c(C(=O)c3ccc(C(F)(F)F)c(N4CCCCCC4=O)c3Cl)c(C3CC3)nn2C)cnn1C                                        0
3  CCc1nn(C)c(O)c1C(=O)c1ccc(C(F)(F)F)c(N2CCCC2=O)c1Cl  2 (Level 2: 5%-20% growth control rate)
4  Cn1cc(C(=O)Oc2c(C(=O)c3ccc(C(F)(F)F)c(N4CCCCC4=O)c3Cl)c(C3CC3)nn2C)cn1  2 (Level 2: 5%-20% growth control rate)
5  CCn1nc(C)c(C(=O)c2ccc(C(F)(F)F)c(N3CCCCCC3=O)c2Cl)c1O  2 (Level 2: 5%-20% growth control rate)
6  Cc1nn(C)cc1C(=O)Oc1c(C(=O)c2ccc(C(F)(F)F)c(N3CCCCC3=O)c2Cl)c(C)nn1C                                        0
7  CCn1ncc(C(=O)c2ccc(C(F)(F)F)c(N3CCCCCC3=O)c2Cl)c1OC(=O)c1cn(C)nc1C                                        0

Continue with the next compound.
Task: Would you kindly share the measured effect on crop, Corn (level) for CCOc1c(C(=O)Oc2c(C(=O)c3ccc(C(F)(F)F)c(N4CCCCCC4=O)c3Cl)c(C)nn2C)cnn1C ?
Output: 0

Where do these numbers come from? They come from patent US11076594B2.
